Source listed as patent US20020137929A1.

# System: SAGPY (Arrowhead (Pygmaea))
# test name: Preemergence weed control under flooded paddy conditions
# Type: in vivo, Sagittaria pygmaea
# applied conditions: 0.0313 kg/ha, rated 3-4 weeks after treatment
metric: SAGPY herbicidal effect rating

compound="CCOC(=O)CN1C(=O)C(CC(=O)OC(C)C)SC1=Nc1cc(-n2c(=O)cc(C(F)(F)F)n(C)c2=O)c(F)cc1Cl (stereo not drawn)" metric="SAGPY herbicidal effect rating" recorded_value=3.0
compound="C=CCN1C(=O)C(CC(=O)O)SC1=Nc1cc(-n2c(=O)cc(C(F)(F)F)n(C)c2=O)c(F)cc1Cl (stereo not drawn)" metric="SAGPY herbicidal effect rating" recorded_value=0.0
compound="CCOC(=O)CN1C(=O)C(CC(=O)OC(C)C(=O)OCC)S/C1=N/c1cc(-n2c(=O)cc(C(F)(F)F)n(C)c2=O)c(F)cc1Cl (stereo not drawn)" metric="SAGPY herbicidal effect rating" recorded_value=0.0
compound=CCCCOC(=O)CN1C(=O)CSC1=Nc1cc(-n2c(=O)cc(C(F)(F)F)n(C)c2=O)c(F)cc1Cl metric="SAGPY herbicidal effect rating" recorded_value=3.0
compound="CCOC(=O)CN1C(=O)C(CC(=O)OCCF)SC1=Nc1cc(-n2c(=O)cc(C(F)(F)F)n(C)c2=O)c(F)cc1Cl (stereo not drawn)" metric="SAGPY herbicidal effect rating" recorded_value=4.0
compound="CCOC(=O)CN1C(=O)C(Cc2ccccc2OC(C)C(=O)O)S/C1=N/c1cc(-n2c(=O)cc(C(F)(F)F)n(C)c2=O)c(F)cc1Cl (stereo not drawn)" metric="SAGPY herbicidal effect rating" recorded_value=3.5

---

Entries and their measured herbicidal effect rating, SAGPY follow.
# Tested on: SAGPY (Arrowhead (Pygmaea))
# test name: Preemergence weed control under flooded paddy conditions
# Type: in vivo, Sagittaria pygmaea
# applied conditions: 0.2500 kg/ha, rated 3-4 weeks after treatment
metric: herbicidal effect rating, SAGPY

compound="CCCN1C(=O)CSC1=Nc1cc(-n2c(=O)cc(C(F)(F)F)n(C)c2=O)c(F)cc1Cl [Compound 171]" metric="herbicidal effect rating, SAGPY" recorded_value=9.0
compound="COCCN1C(=O)CSC1=Nc1cc(-n2c(=O)cc(C(F)(F)F)n(C)c2=O)c(F)cc1Cl [Compound 155]" metric="herbicidal effect rating, SAGPY" recorded_value=0.0
compound="C#CC(C)N1C(=O)CSC1=Nc1cc(-n2c(=O)cc(C(F)(F)F)n(C)c2=O)c(F)cc1Cl (stereo not shown) [Compound 165]" metric="herbicidal effect rating, SAGPY" recorded_value=7.0
compound="Cn1c(C(F)(F)F)cc(=O)n(-c2cc(N=C3SCC(=O)N3Cc3ccc(Br)cc3)c(Cl)cc2F)c1=O [Compound 148]" metric="herbicidal effect rating, SAGPY" recorded_value=4.0
compound="CCOC(=O)CN1C(=O)C(Cl)SC1=Nc1cc(-n2c(=O)cc(C(F)(F)F)n(C)c2=O)c(F)cc1Cl (stereo not shown) [Compound 126]" metric="herbicidal effect rating, SAGPY" recorded_value=3.0
compound="C=CCN1C(=O)C(CC(=O)NO)SC1=Nc1cc(-n2c(=O)cc(C(F)(F)F)n(C)c2=O)c(F)cc1Cl (stereo not shown) [Compound 161]" metric="herbicidal effect rating, SAGPY" recorded_value=9.0
compound="CCOC(=O)CN1C(=O)C(SC)SC1=Nc1cc(-n2c(=O)cc(C(F)(F)F)n(C)c2=O)c(F)cc1Cl (stereo not shown) [Compound 125]" metric="herbicidal effect rating, SAGPY" recorded_value=9.0

---

# Tested on: ECHORC (Watergrass (Calif.))
# test name: Postemergence weed control under flooded paddy conditions
# Type: in vivo, Echinochloa oryzoides
# applied conditions: Rate 0.1250 kg/ha, postemergence weeds, rated 3 to 4 weeks after treatment
// NOT MET strictly below 3 in Herbicidal rating ECHORC; MET otherwise

compound="C=CCN1C(=O)C(CC(=O)OC(C)C(=O)OCC)SC1=Nc1cc(-n2c(=O)ccn(C)c2=O)c(F)cc1Cl (stereo not shown)" group_label="NOT MET"
compound="CCOC(=O)CN1C(=O)C(CC(=O)NS(=O)(=O)c2ccccc2)SC1=Nc1cc(-n2c(=O)cc(C(F)(F)F)n(C)c2=O)c(F)cc1Cl (stereo not shown)" group_label="NOT MET"
compound="COC(=O)CC1SC(=Nc2cc(-n3c(=O)cc(C(F)(F)F)n(C)c3=O)c(F)cc2Cl)N(C)C1=O (stereo not shown)" group_label=MET
compound="CCOC(=O)CN1C(=O)C(CC(=O)OC(C)C(=O)OCC)S/C1=N/c1cc(-n2c(=O)cc(C(F)(F)F)n(C)c2=O)c(F)cc1Cl (stereo not shown)" group_label="NOT MET"
compound="CCOC(=O)CN1C(=O)C(CC(=O)OC(C)C)SC1=Nc1cc(-n2c(=O)cc(C(F)(F)F)n(C)c2=O)c(F)cc1Cl (stereo not shown)" group_label=MET

---

# Tested on: ORYSAT (Rice, Tebonnet)
# test name: Rice tolerance to post-transplant applications, flooded paddy conditions (Table IV)
# Type: in vivo, Oryza sativa, (L.) Tebonnet
# applied conditions: rate 0.1250 kg/ha; flooded paddy, post-transplant rice; 3-4 weeks after treatment
Below, each of the molecules is paired with its reported Herbicidal rating ORYSAT (rice tolerance) value.
metric: Herbicidal rating ORYSAT (rice tolerance)

molecule="CCOC(=O)COc1ccccc1CC1S/C(=N/c2cc(-n3c(=O)cc(C(F)(F)F)n(C)c3=O)c(F)cc2Cl)N(CC(=O)OCC)C1=O (centres unmarked) [Compound 42]" test_target="ORYSAT (Rice, Tebonnet)" recorded_value=0.0
molecule="O=C1CSC(=Nc2cc(N3C(=O)C4=C(CCCC4)C3=O)c(F)cc2Cl)N1c1ccccc1 [Compound 3]" test_target="ORYSAT (Rice, Tebonnet)" recorded_value=1.0
molecule="CCOC(=O)CN1C(=O)C[S+]([O-])/C1=N/c1cc(-n2c(=O)cc(C(F)(F)F)n(C)c2=O)c(F)cc1Cl (centres unmarked) [Compound 45]" test_target="ORYSAT (Rice, Tebonnet)" recorded_value=2.0
molecule="O=C(O)CC1SC(=Nc2cc(N3C(=O)C4=C(CCCC4)C3=O)c(F)cc2Cl)N(CC(=O)O)C1=O (centres unmarked) [Compound 48]" test_target="ORYSAT (Rice, Tebonnet)" recorded_value=4.0
molecule="CCOP(=O)(CN1C(=O)CSC1=Nc1cc(-n2c(=O)cc(C(F)(F)F)n(C)c2=O)c(F)cc1Cl)OCC [Compound 35]" test_target="ORYSAT (Rice, Tebonnet)" recorded_value=2.0

---

# Test system: ABUTH (Velvetleaf)
# test name: Preemergence herbicidal evaluation
# Format: in vivo, Abutilon theophrasti
# applied conditions: rate 0.1250 kg/ha; rated 4-5 weeks after treatment; rating scale 0-9
Each record here notes measured Preemergence herbicidal rating ABUTH.
metric: Preemergence herbicidal rating ABUTH

molecular_string=COc1cccc(CN2C(=O)CSC2=Nc2cc(-n3c(=O)cc(C(F)(F)F)n(C)c3=O)c(F)cc2Cl)c1 metric="Preemergence herbicidal rating ABUTH" recorded_value=0.0
molecular_string=Cc1cccc(CN2C(=O)CSC2=Nc2cc(-n3c(=O)cc(C(F)(F)F)n(C)c3=O)c(F)cc2Cl)c1 metric="Preemergence herbicidal rating ABUTH" recorded_value=9.0
molecular_string=COc1ccc(CN2C(=O)CSC2=Nc2cc(-n3c(=O)cc(C(F)(F)F)n(C)c3=O)c(F)cc2Cl)cc1OC metric="Preemergence herbicidal rating ABUTH" recorded_value=0.0
molecular_string=COc1ccc(CN2C(=O)CSC2=Nc2cc(-n3c(=O)cc(C(F)(F)F)n(C)c3=O)c(F)cc2Cl)c(OC)c1 metric="Preemergence herbicidal rating ABUTH" recorded_value=9.0
molecular_string=Cn1c(C(F)(F)F)cc(=O)n(-c2cc(N=C3SCC(=O)N3Cc3ccc(S(N)(=O)=O)cc3)c(Cl)cc2F)c1=O metric="Preemergence herbicidal rating ABUTH" recorded_value=6.0

---

Each item that follows carries a reported herbicidal rating ZEAMX.
# System: ZEAMX (Corn, Field)
# test name: Postemergence herbicidal evaluation
# Assay type: in vivo, Zea mays
# applied conditions: postemergence, rate 0.0625 kg/ha
metric: herbicidal rating ZEAMX

compound="CSCCN1C(=O)CSC1=Nc1cc(-n2c(=O)cc(C(F)(F)F)n(C)c2=O)c(F)cc1Cl [Compound 157]" recorded_value=7.0
compound="Cn1c(C(F)(F)F)cc(=O)n(-c2cc(N=C3SCC(=O)N3Cc3ccco3)c(Cl)cc2F)c1=O [Compound 122]" recorded_value=7.0
compound="CCOC(=O)CN1C(=O)C(CC(=O)NS(=O)(=O)CC)SC1=Nc1cc(-n2c(=O)cc(C(F)(F)F)n(C)c2=O)c(F)cc1Cl (stereo not shown) [Compound 103]" recorded_value=8.5
compound="C#CC(C)N1C(=O)CSC1=Nc1cc(-n2c(=O)cc(C(F)(F)F)n(C)c2=O)c(F)cc1Cl (stereo not shown) [Compound 165]" recorded_value=5.0
compound="COC(=O)CSCCN1C(=O)CSC1=Nc1cc(-n2c(=O)cc(C(F)(F)F)n(C)c2=O)c(F)cc1Cl [Compound 158]" recorded_value=5.5
compound="C=CCN1C(=O)C(CC(=O)NO)SC1=Nc1cc(-n2c(=O)cc(C(F)(F)F)n(C)c2=O)c(F)cc1Cl (stereo not shown) [Compound 161]" recorded_value=7.0
compound="CCOC(=O)CN1C(=O)CSC1=Nc1cc(N2C(=O)CC(C(F)(F)F)CC2=O)c(F)cc1Cl [Compound 169]" recorded_value=8.5
compound="Cn1c(C(F)(F)F)cc(=O)n(-c2cc(N=C3SCC(=O)N3Cc3ccccc3Cl)c(Cl)cc2F)c1=O [Compound 143]" recorded_value=4.0
compound="CCOC(=O)CN1C(=O)C(C(=O)OCC)SC1=Nc1cc(-n2c(=O)cc(C(F)(F)F)n(C)c2=O)c(F)cc1Cl (stereo not shown) [Compound 127]" recorded_value=7.0
compound="Cn1c(C(F)(F)F)cc(=O)n(-c2cc(N=C3SCC(=O)N3Cc3ccc(S(N)(=O)=O)cc3)c(Cl)cc2F)c1=O [Compound 135]" recorded_value=4.0
